System: Enterococcus faecalis
Assay: Antibacterial activity against vancomycin-resistant Enterococcus faecalis ATCC 51575 assessed as growth inhibition by CLSI broth microdilution method
Assay type: functional
Examples of compounds with documented MIC90 follow.

Compound	U	Limit Operator	MIC90
C[N+](C)(C)c1ccc(-c2ccc3c(-c4ccc(-c5ccccc5)cc4)cccc3c2)cc1.[I-]	µg/mL	=	2
Cc1onc(-c2ccccc2)c1C(=O)N[C@@H]1C(=O)N2[C@@H]1SC(C)(C)[C@@H]2C(=O)O [OXACILLIN]	µg/mL	>	64
CC(C)(C)c1ccc(-c2cccc3cc(-c4ccccc4CCN)ccc23)cc1	µg/mL	=	4
CC(C)(C)c1ccc(-c2cccc3cc(-c4ccccc4C[N+](C)(C)C)ccc23)cc1.[I-]	µg/mL	=	4
COC(=O)c1ccc(-c2ccc3c(-c4ccc(C(C)(C)C)cc4)cccc3c2)c(CN=C(N)N)c1	µg/mL	=	4
CN(C)Cc1ccccc1-c1ccc2c(-c3ccc(C(C)(C)C)cc3)cccc2c1	µg/mL	>	64
COC(=O)c1ccc(-c2ccc3c(-c4ccc(C(C)(C)C)cc4)cccc3c2)c(CN(C)C)c1	µg/mL	>	64
CN[C@H](CC(C)C)C(=O)N[C@H]1C(=O)N[C@@H](CC(N)=O)C(=O)N[C@H]2C(=O)N[C@H]3C(=O)N[C@H](C(=O)N[C@H](C(=O)O)c4cc(O)cc(O)c4-c4cc3ccc4O)[C@H](O)c3ccc(c(Cl)c3)Oc3cc2cc(c3O[C@@H]2O[C@H](CO)[C@@H](O)[C@H](O)[C@H]2O[C@H]2C[C@](C)(N)[C@H](O)[C@H](C)O2)Oc2ccc(cc2Cl)[C@H]1O [VANCOMYCIN]	µg/mL	>	64
CN(C)Cc1cccc(-c2ccc3c(-c4cccc(-c5ccccc5)c4)cccc3c2)c1	µg/mL	=	16
CC(C)(C)c1ccc(-c2cccc3cc(-c4ccc(C(=O)O)cc4CN)ccc23)cc1	µg/mL	>	64
COc1ccc2c(c[n+](C)c3c4cc5c(cc4ccc23)OCO5)c1OC [CHELERYTHRINE]	µg/mL	=	32
CC(C)(C)c1ccc(-c2cccc3cc(-c4ccccc4N)ccc23)cc1	µg/mL	>	64
C[N+](C)(C)c1cccc(-c2ccc3c(-c4ccc(F)cc4)cccc3c2)c1.[I-]	µg/mL	=	8
CN(C)[C@@H]1C(O)=C(C(N)=O)C(=O)[C@@]2(O)C(O)=C3C(=O)c4c(O)cccc4[C@@](C)(O)[C@H]3C[C@@H]12 [TETRACYCLINE]	µg/mL	>	64
CCC[C@@H]1C[C@@H](C(=O)N[C@@H]([C@H]2O[C@H](SC)[C@H](O)[C@@H](O)[C@H]2O)[C@H](C)Cl)N(C)C1 [CLINDAMYCIN]	µg/mL	>	64
C[N+](C)(C)c1cccc(-c2ccc3c(-c4ccc(-c5ccccc5)cc4)cccc3c2)c1.[I-]	µg/mL	=	4
C[N+](C)(C)Cc1cccc(-c2ccc3c(-c4cccc(-c5ccccc5)c4)cccc3c2)c1.[I-]	µg/mL	=	4
CNCc1ccccc1-c1ccc2c(-c3ccc(C(C)(C)C)cc3)cccc2c1	µg/mL	=	2
Cc1ccccc1-c1ccc2c(-c3ccc(C(C)(C)C)cc3)cccc2c1	µg/mL	>	64
CNCc1cc(C(=O)OC)ccc1-c1ccc2c(-c3ccc(C(C)(C)C)cc3)cccc2c1	µg/mL	=	4
COC(=O)c1ccc(-c2ccc3c(-c4ccc(C(C)(C)C)cc4)cccc3c2)c(C[N+](C)(C)C)c1.[I-]	µg/mL	=	8
